Values compiled from ChEMBL document CHEMBL1135273.

Target: Glutamate NMDA receptor; GRIN1/GRIN2B (Homo sapiens, UniProt Q05586+Q13224)
Sequence (Q13224 whole entry, other chains not shown): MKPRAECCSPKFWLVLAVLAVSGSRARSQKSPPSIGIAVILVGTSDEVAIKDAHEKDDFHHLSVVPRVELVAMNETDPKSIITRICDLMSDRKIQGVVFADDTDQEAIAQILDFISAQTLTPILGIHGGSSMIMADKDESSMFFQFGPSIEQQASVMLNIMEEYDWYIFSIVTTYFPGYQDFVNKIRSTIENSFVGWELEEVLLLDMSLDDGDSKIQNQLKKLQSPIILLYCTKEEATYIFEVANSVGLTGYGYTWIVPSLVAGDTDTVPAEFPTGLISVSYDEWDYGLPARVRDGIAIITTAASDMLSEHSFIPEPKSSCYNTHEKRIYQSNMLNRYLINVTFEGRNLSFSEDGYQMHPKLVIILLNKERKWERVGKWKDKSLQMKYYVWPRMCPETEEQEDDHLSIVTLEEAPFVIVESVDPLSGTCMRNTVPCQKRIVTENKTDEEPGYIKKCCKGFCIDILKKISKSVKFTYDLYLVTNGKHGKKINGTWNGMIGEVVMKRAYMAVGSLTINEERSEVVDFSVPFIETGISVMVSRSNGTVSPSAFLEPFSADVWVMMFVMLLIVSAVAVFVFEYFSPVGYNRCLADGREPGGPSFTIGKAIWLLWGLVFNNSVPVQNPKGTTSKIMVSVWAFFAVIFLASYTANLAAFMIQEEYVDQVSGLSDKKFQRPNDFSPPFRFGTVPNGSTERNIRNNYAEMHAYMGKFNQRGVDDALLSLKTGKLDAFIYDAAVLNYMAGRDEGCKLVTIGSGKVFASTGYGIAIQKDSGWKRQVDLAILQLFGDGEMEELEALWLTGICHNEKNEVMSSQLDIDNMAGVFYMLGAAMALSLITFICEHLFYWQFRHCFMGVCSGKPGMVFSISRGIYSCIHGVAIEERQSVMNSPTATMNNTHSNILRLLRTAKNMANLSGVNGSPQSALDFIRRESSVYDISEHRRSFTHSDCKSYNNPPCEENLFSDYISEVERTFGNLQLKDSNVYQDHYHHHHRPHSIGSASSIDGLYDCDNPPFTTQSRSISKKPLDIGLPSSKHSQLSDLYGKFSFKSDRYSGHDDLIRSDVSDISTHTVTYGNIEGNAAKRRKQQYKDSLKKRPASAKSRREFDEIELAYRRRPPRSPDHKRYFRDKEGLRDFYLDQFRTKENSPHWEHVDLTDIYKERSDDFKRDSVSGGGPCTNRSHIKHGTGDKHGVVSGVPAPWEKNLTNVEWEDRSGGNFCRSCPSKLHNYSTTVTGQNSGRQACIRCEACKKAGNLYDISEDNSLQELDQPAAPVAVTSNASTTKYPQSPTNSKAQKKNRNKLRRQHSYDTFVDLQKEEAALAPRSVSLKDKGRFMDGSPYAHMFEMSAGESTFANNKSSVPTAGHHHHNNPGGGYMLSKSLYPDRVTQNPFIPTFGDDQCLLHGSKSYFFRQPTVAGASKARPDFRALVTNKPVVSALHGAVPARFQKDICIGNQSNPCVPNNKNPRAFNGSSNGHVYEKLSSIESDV
Experiment: Inhibitory activity against Xenopus laevis oocyte expressing 1A/2B heteromeric human NMDA (hNMDA) receptor
MEASURED_PROPERTY: pIC50
Reminder that pIC50 is minus the log10 of a molar concentration.

Request: Provide the documented pIC50 with Glutamate NMDA receptor; GRIN1/GRIN2B (Homo sapiens, UniProt Q05586+Q13224) as the system for COC(=O)NC(c1cc([N+](=O)[O-])cc2nc(O)c(O)nc12)P(=O)(O)O (stereo not drawn)
Result: 5.85

Request: Provide the documented pIC50 with Glutamate NMDA receptor; GRIN1/GRIN2B (Homo sapiens, UniProt Q05586+Q13224) as the system for C[C@H](NC(c1cccc2[nH]c(=O)c(=O)[nH]c12)P(=O)(O)O)c1ccc(Br)cc1 (stereo partly drawn)
Result: 4.53

Request: Provide the documented pIC50 with Glutamate NMDA receptor; GRIN1/GRIN2B (Homo sapiens, UniProt Q05586+Q13224) as the system for O=P(O)(O)C(O)c1cccc2nc(O)c(O)nc12 (stereo not drawn)
Result: 9.15

Request: Provide the documented pIC50 with Glutamate NMDA receptor; GRIN1/GRIN2B (Homo sapiens, UniProt Q05586+Q13224) as the system for CN(Cc1ccccc1)C(c1cccc2nc(O)c(O)nc12)P(=O)(O)O (stereo not drawn)
Result: 4.52

Request: Provide the documented pIC50 with Glutamate NMDA receptor; GRIN1/GRIN2B (Homo sapiens, UniProt Q05586+Q13224) as the system for CNC(c1cccc2nc(O)c(O)nc12)P(=O)(O)O (stereo not drawn)
Result: 5.21

Request: Provide the documented pIC50 with Glutamate NMDA receptor; GRIN1/GRIN2B (Homo sapiens, UniProt Q05586+Q13224) as the system for Br.O=[N+]([O-])c1cc(C(NCc2ccccc2)P(=O)(O)Cc2ccccc2)c2nc(O)c(O)nc2c1 (stereo not drawn)
Result: 5.89

Request: Provide the documented pIC50 with Glutamate NMDA receptor; GRIN1/GRIN2B (Homo sapiens, UniProt Q05586+Q13224) as the system for O=P(O)(O)C(NC(c1ccccc1)c1ccccc1)c1cccc2nc(O)c(O)nc12 (stereo not drawn)
Result: 5.82

Request: Provide the documented pIC50 with Glutamate NMDA receptor; GRIN1/GRIN2B (Homo sapiens, UniProt Q05586+Q13224) as the system for O=P(O)(O)C(Nc1ccccc1)c1cccc2nc(O)c(O)nc12 (stereo not drawn)
Result: 5.21

Request: Provide the documented pIC50 with Glutamate NMDA receptor; GRIN1/GRIN2B (Homo sapiens, UniProt Q05586+Q13224) as the system for C[C@H](NC(c1cccc2nc(O)c(O)nc12)P(=O)(O)O)c1ccccc1 (stereo partly drawn)
Result: 6.05

Request: Provide the documented pIC50 with Glutamate NMDA receptor; GRIN1/GRIN2B (Homo sapiens, UniProt Q05586+Q13224) as the system for O=P(O)(O)Cc1cc(-c2ccc(Cl)cc2)cc2nc(O)c(O)nc12
Result: 8.74

Request: Provide the documented pIC50 with Glutamate NMDA receptor; GRIN1/GRIN2B (Homo sapiens, UniProt Q05586+Q13224) as the system for CCCNC(c1cc([N+](=O)[O-])cc2nc(O)c(O)nc12)P(=O)(O)O.Cl (stereo not drawn)
Result: 6.03

Request: Provide the documented pIC50 with Glutamate NMDA receptor; GRIN1/GRIN2B (Homo sapiens, UniProt Q05586+Q13224) as the system for C[C@@H](NC(c1cccc2nc(O)c(O)nc12)P(=O)(O)O)c1ccccc1 (stereo partly drawn)
Result: 6.24

Request: Provide the documented pIC50 with Glutamate NMDA receptor; GRIN1/GRIN2B (Homo sapiens, UniProt Q05586+Q13224) as the system for O=P(O)(O)C(NCCc1ccccc1)c1cccc2nc(O)c(O)nc12 (stereo not drawn)
Result: 5.80

Request: Provide the documented pIC50 with Glutamate NMDA receptor; GRIN1/GRIN2B (Homo sapiens, UniProt Q05586+Q13224) as the system for Br.O=P(O)(O)C(NCc1ccccc1)c1cccc2nc(O)c(O)nc12 (stereo not drawn)
Result: 7.47

Request: Provide the documented pIC50 with Glutamate NMDA receptor; GRIN1/GRIN2B (Homo sapiens, UniProt Q05586+Q13224) as the system for CC(=O)N(C)C(c1cccc2nc(O)c(O)nc12)P(=O)(O)O (stereo not drawn)
Result: 4.62

Request: Provide the documented pIC50 with Glutamate NMDA receptor; GRIN1/GRIN2B (Homo sapiens, UniProt Q05586+Q13224) as the system for Br.CP(=O)(O)C(NCc1ccccc1)c1cc([N+](=O)[O-])cc2nc(O)c(O)nc12 (stereo not drawn)
Result: 5.89

Request: Provide the documented pIC50 with Glutamate NMDA receptor; GRIN1/GRIN2B (Homo sapiens, UniProt Q05586+Q13224) as the system for O=P(O)(O)C(N[C@H]1CCc2ccccc21)c1cccc2nc(O)c(O)nc12 (stereo partly drawn)
Result: 6.09

* * *

Target: Glutamate [NMDA] receptor
Test: Compound was tested in vitro for its inhibitory activity at 1 uM concentration against N-methyl-D-aspartate glutamate receptor by using [3H]CGP-39653 binding assay
Format: protein-complex assay
MEASURED_PROPERTY: pIC50
Reminder that pIC50 is minus the log10 of a molar concentration.

Request: Provide the documented pIC50 with Glutamate [NMDA] receptor as the system for O=P(O)(O)Cc1cccc2nc(O)c(O)nc12
Result: 9.30

* * *

Assay: Compound was tested in vitro for its inhibitory activity against Xenopus laevis oocyte expressing 1A/2A heteromeric human NMDA (hNMDA) receptor
MEASURED_PROPERTY: IC50
State the value, then name its unit.

Request: Form field: reported IC50 of O=P(O)(O)Cc1cccc2nc(O)c(O)nc12
Result: 2 nM

* * *

Target: Glutamate [NMDA] receptor
Test: In vitro inhibitory activity at 1 uM concentration against N-methyl-D-aspartate glutamate receptor, using [3H]CGP-39653 binding assay
Type: protein-complex assay
MEASURED_PROPERTY: log10(IC50) (log10 of the value in µM)
Note the log scale: values are log10 of IC50 expressed in µM.

Request: Form field: reported log10(IC50) of C[C@H](NC(c1cccc2nc(O)c(O)nc12)P(=O)(O)O)c1ccccc1 (some centres undefined)
Result: -2.01

Request: Form field: reported log10(IC50) of O=[N+]([O-])c1cc(C(O)P(=O)(O)O)c2nc(O)c(O)nc2c1 (centres undefined)
Result: -2.92

Request: Form field: reported log10(IC50) of O=P(O)(O)C(O)c1cccc2nc(O)c(O)nc12 (centres undefined)
Result: -2.82

Request: Form field: reported log10(IC50) of Br.O=P(O)(O)C(NCc1ccccc1)c1cccc2nc(O)c(O)nc12 (centres undefined)
Result: -2.70

Request: Form field: reported log10(IC50) of O=P(O)(O)Cc1cc(-c2ccc(Cl)cc2)cc2nc(O)c(O)nc12
Result: -3.10

Request: Form field: reported log10(IC50) of C[C@@H](NC(c1cccc2nc(O)c(O)nc12)P(=O)(O)O)c1ccccc1 (some centres undefined)
Result: -1.51

Request: Form field: reported log10(IC50) of COC(c1cc([N+](=O)[O-])cc2nc(O)c(O)nc12)P(=O)(O)O (centres undefined)
Result: -1.77

Request: Form field: reported log10(IC50) of O=P(O)(O)Cc1cc(Cl)cc2nc(O)c(O)nc12
Result: -2.77

Request: Form field: reported log10(IC50) of CNC(c1cccc2nc(O)c(O)nc12)P(=O)(O)O (centres undefined)
Result: 0.04

Request: Form field: reported log10(IC50) of O=P(O)(O)Cc1cc(F)cc2nc(O)c(O)nc12
Result: -3.00

Request: Form field: reported log10(IC50) of CC(=O)OC(c1cc([N+](=O)[O-])cc2nc(O)c(O)nc12)P(=O)(O)O (centres undefined)
Result: -2.09

Request: Form field: reported log10(IC50) of O=P(O)(O)C(NC(c1ccccc1)c1ccccc1)c1cccc2nc(O)c(O)nc12 (centres undefined)
Result: -1.42

Request: Form field: reported log10(IC50) of Br.CP(=O)(O)C(NCc1ccccc1)c1cc([N+](=O)[O-])cc2nc(O)c(O)nc12 (centres undefined)
Result: -1.10

Request: Form field: reported log10(IC50) of O=P(O)(O)C(N[C@H]1CCc2ccccc21)c1cccc2nc(O)c(O)nc12 (some centres undefined)
Result: -0.92

Request: Form field: reported log10(IC50) of Cl.O=[N+]([O-])c1cc(C(NCC2CCCCC2)P(=O)(O)O)c2nc(O)c(O)nc2c1 (centres undefined)
Result: -2.52

Request: Form field: reported log10(IC50) of Cl.NC(c1cc([N+](=O)[O-])cc2nc(O)c(O)nc12)P(=O)(O)O (centres undefined)
Result: -1.40

Request: Form field: reported log10(IC50) of C[C@H](NC(c1cccc2[nH]c(=O)c(=O)[nH]c12)P(=O)(O)O)c1ccc(Br)cc1 (some centres undefined)
Result: -2.10

Request: Form field: reported log10(IC50) of COC(=O)NC(c1cc([N+](=O)[O-])cc2nc(O)c(O)nc12)P(=O)(O)O (centres undefined)
Result: -0.43

Request: Form field: reported log10(IC50) of O=C(O)Cc1cccc2nc(O)c(O)nc12
Result: -0.60

Request: Form field: reported log10(IC50) of CN(Cc1ccccc1)C(c1cccc2nc(O)c(O)nc12)P(=O)(O)O (centres undefined)
Result: -0.80

Request: Form field: reported log10(IC50) of O=P(O)(O)C(NCCc1ccccc1)c1cccc2nc(O)c(O)nc12 (centres undefined)
Result: -2.13

Request: Form field: reported log10(IC50) of CC(=O)N(C)C(c1cccc2nc(O)c(O)nc12)P(=O)(O)O (centres undefined)
Result: -0.07

Request: Form field: reported log10(IC50) of Br.O=[N+]([O-])c1cc(C(NCc2ccccc2)P(=O)(O)O)c2nc(O)c(O)nc2c1 (centres undefined)
Result: -2.82

Request: Form field: reported log10(IC50) of C[C@H](NC(c1cccc2nc(O)c(O)nc12)P(=O)(O)O)c1cccc2ccccc12 (some centres undefined)
Result: -1.57

Request: Form field: reported log10(IC50) of O=P(O)(O)C(Nc1ccccc1)c1cccc2nc(O)c(O)nc12 (centres undefined)
Result: -0.89

Request: Form field: reported log10(IC50) of O=P(O)(O)Cc1cc(Br)cc2nc(O)c(O)nc12
Result: -2.82

Request: Form field: reported log10(IC50) of Br.O=[N+]([O-])c1cc(C(NCc2ccco2)P(=O)(O)O)c2nc(O)c(O)nc2c1 (centres undefined)
Result: -2.39

Request: Form field: reported log10(IC50) of CCCNC(c1cc([N+](=O)[O-])cc2nc(O)c(O)nc12)P(=O)(O)O.Cl (centres undefined)
Result: -1.19

Request: Form field: reported log10(IC50) of Br.O=[N+]([O-])c1cc(C(NCc2ccccc2)P(=O)(O)Cc2ccccc2)c2nc(O)c(O)nc2c1 (centres undefined)
Result: -1.22
